molecular target: active p38 alpha enzyme (Upstate Biotechnology) (Homo sapiens); construct: purchased Upstate Biotechnology; test: p38α biochemical assay (ATP turnover, luminescent detection, Cambrex PKlight); conditions: p38α biochemical assay, Table 1 Biological Activity
Endpoint name: IC50

Structure smiles	Endpoint name	Result
CCCCc1ccc(C(=O)NCc2onc(-c3ccc(F)cc3)c2-c2nc(C(=O)NC(C)C)cs2)cc1	IC50	> 1000 nM
CC(C)NC(=O)c1csc(-c2c(-c3ccc(F)cc3)noc2CNC(=O)c2ccc(F)c(F)c2)n1	IC50	> 1000 nM
CC(C)NC(=O)c1csc(-c2c(-c3ccc(F)cc3)noc2CNC(=O)c2ccc([N+](=O)[O-])c(O)c2)n1	IC50	> 1000 nM

Answer with the recorded IC50 of Cc1ccccc1OCC(=O)NCc1nc(-c2ccc(F)cc2)c(-c2nc(C(=O)NC(C)C)cs2)o1 only. > 1000 nM

Answer with the recorded IC50 of COc1cccc(C(=O)NCc2nc(-c3ccc(F)cc3)c(-c3nc(C(=O)NC(C)C)cs3)o2)c1OC only. > 1000 nM

Answer with the recorded IC50 of C#CCNC(=O)c1csc(-c2c(-c3ccc(F)cc3)ncn2C2CCN(C(=O)CO)CC2)n1 only. ≤ 1000 nM

Answer with the recorded IC50 of CC(C)NC(=O)c1csc(-c2oc(CNC(=O)c3cccc([N+](=O)[O-])c3)nc2-c2ccc(F)cc2)n1 only. > 1000 nM

Answer with the recorded IC50 of Cc1nc(-c2ccc(F)cc2)c(-c2nc(C(=O)NC(C)C)cs2)o1 only. ≤ 1000 nM

---

biological target: active p38 alpha enzyme (Upstate Biotechnology) (Homo sapiens, UniProt Q16539); construct: purchased Upstate Biotechnology; assay: p38α biochemical assay (ATP turnover, luminescent detection, Cambrex PKlight); conditions: p38α biochemical assay, Table 1 Biological Activity
Sequence (Q16539 whole entry): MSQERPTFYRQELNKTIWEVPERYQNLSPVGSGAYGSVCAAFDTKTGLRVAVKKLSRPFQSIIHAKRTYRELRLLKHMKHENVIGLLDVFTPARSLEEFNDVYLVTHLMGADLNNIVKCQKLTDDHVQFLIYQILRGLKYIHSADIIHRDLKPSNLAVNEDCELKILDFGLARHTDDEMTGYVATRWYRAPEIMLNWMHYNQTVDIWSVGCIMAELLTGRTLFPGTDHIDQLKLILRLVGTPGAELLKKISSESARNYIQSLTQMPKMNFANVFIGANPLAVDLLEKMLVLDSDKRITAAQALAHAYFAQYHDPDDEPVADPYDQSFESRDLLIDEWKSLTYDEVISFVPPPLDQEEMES
# IC50 per entry

Sample records with IC50:
Compound	Assay system	IC50
Cc1nc(-c2ccc(F)cc2)c(-c2nc(C(=O)NCCO)cs2)s1 [Example 49]	active p38 alpha enzyme (Upstate Biotechnology) (Homo sapiens, UniProt Q16539)	≤ 1000 nM
CC(C)NC(=O)c1csc(-c2oc(CN3CCN(C(=O)c4ccccc4Cl)CC3)nc2-c2ccc(F)cc2)n1 [Example 388]	active p38 alpha enzyme (Upstate Biotechnology) (Homo sapiens, UniProt Q16539)	> 1000 nM
CC(C)NC(=O)c1csc(-c2oc(CN(C)C)nc2-c2ccc(F)cc2)n1 [Example 42]	active p38 alpha enzyme (Upstate Biotechnology) (Homo sapiens, UniProt Q16539)	≤ 1000 nM

Answer with the recorded IC50 of CC(C)NC(=O)c1csc(-c2oc(CNC(=O)/C=C/c3cccc(O)c3)nc2-c2ccc(F)cc2)n1 [Example 168] only. ≤ 1000 nM

Answer with the recorded IC50 of Cc1c(C(=O)NCc2onc(-c3ccc(F)cc3)c2-c2nc(C(=O)NC(C)C)cs2)oc2ccccc12 [Example 677] only. > 1000 nM

Answer with the recorded IC50 of Cc1[nH]nc(-c2ccc(F)cc2)c1-c1nc(C(=O)NCC2CC2)cs1 [Example 73] only. ≤ 1000 nM

Answer with the recorded IC50 of Cc1[nH]nc(-c2ccc(F)cc2)c1-c1nc(C(=O)NCc2ccncc2)cs1 [Example 77] only. ≤ 1000 nM

Answer with the recorded IC50 of CC(C)NC(=O)c1csc(-c2oc(CNC(=O)C(Cc3ccccn3)NC(=O)OC(C)(C)C)nc2-c2ccc(F)cc2)n1 (centres unmarked) [Example 332] only. > 1000 nM

---

biological target: active p38 alpha enzyme (Upstate Biotechnology) (Homo sapiens, UniProt Q16539); construct: purchased Upstate Biotechnology; assay: p38α biochemical assay (ATP turnover, luminescent detection, Cambrex PKlight); settings: p38α biochemical assay, Table 1 Biological Activity
pIC50: −log10 of the molar value.
Endpoint name: pIC50

Compound	pIC50
CC(C)NC(=O)c1csc(-c2oc(CN3CCN(C(=O)c4ccccc4O)CC3)nc2-c2ccc(F)cc2)n1 [Example 362]	≥ 6.00
CC(C)NC(=O)c1csc(-c2oc(CN3CCN(C(=O)c4cc5ccccc5cc4O)CC3)nc2-c2ccc(F)cc2)n1 [Example 481]	< 6.00
CC(C)NC(=O)c1csc(-c2oc(CN3CCN(C(=O)c4c(O)ccc5ccccc45)CC3)nc2-c2ccc(F)cc2)n1 [Example 480]	< 6.00

Then this compound:
Answer with the recorded pIC50 of COc1ccc(C(=O)NCc2nc(-c3ccc(F)cc3)c(-c3nc(C(=O)NC(C)C)cs3)o2)cc1O [Example 189] only. < 6.00

---

molecular target: active p38 alpha enzyme (Upstate Biotechnology) (Homo sapiens, UniProt Q16539); construct: purchased Upstate Biotechnology; assay: p38α biochemical assay (ATP turnover, luminescent detection, Cambrex PKlight); conditions: p38α biochemical assay, Table 1 Biological Activity
# IC50 per entry

Compound	Result
CC(C)NC(=O)c1csc(-c2oc(CN3CCN(C(=O)c4cccc([N+](=O)[O-])c4)CC3)nc2-c2ccc(F)cc2)n1	> 1000 nM

Provide measured IC50 on active p38 alpha enzyme (Upstate Biotechnology) (Homo sapiens, UniProt Q16539) for CC(C)Cc1ccc(C(C)C(=O)NCc2onc(-c3ccc(F)cc3)c2-c2nc(C(=O)NC(C)C)cs2)cc1 (stereo not shown) please. > 1000 nM

Provide measured IC50 on active p38 alpha enzyme (Upstate Biotechnology) (Homo sapiens, UniProt Q16539) for CC(C)NC(=O)c1csc(-c2oc(CNC(=O)c3ccc([N+](=O)[O-])c(O)c3)nc2-c2ccc(F)cc2)n1 please. > 1000 nM

---

# pIC50 per entry
target: active p38 alpha enzyme (Upstate Biotechnology) (Homo sapiens); construct: purchased Upstate Biotechnology; assay: p38α biochemical assay (ATP turnover, luminescent detection, Cambrex PKlight); details: p38α biochemical assay, Table 1 Biological Activity
pIC50: −log10 of the molar value.

Compound	pIC50
Cc1ccccc1CC(=O)N1CCN(Cc2nc(-c3ccc(F)cc3)c(-c3nc(C(=O)NC(C)C)cs3)o2)CC1 [Example 372]	< 6.00
CC(C)NC(=O)c1csc(-c2oc(CNC(=O)C3CCCCN3C(=O)OC(C)(C)C)nc2-c2ccc(F)cc2)n1 (centres unmarked) [Example 311]	< 6.00
CC(C)NC(=O)c1csc(-c2c(-c3ccc(F)cc3)noc2CNC(=O)C(C)(C)C)n1 [Example 578]	< 6.00
Cc1c(C(=O)N2CCN(Cc3nc(-c4ccc(F)cc4)c(-c4nc(C(=O)NC(C)C)cs4)o3)CC2)oc2ccccc12 [Example 439]	< 6.00
CC(C)NC(=O)c1csc(-c2oc(CNC(=O)c3cccc(Cl)c3[N+](=O)[O-])nc2-c2ccc(F)cc2)n1 [Example 270]	≥ 6.00
CC(C)NC(=O)c1csc(-c2c(-c3ccc(F)cc3)noc2CNC(=O)c2cn(C)cn2)n1 [Example 592]	< 6.00
CC(C)NC(=O)c1csc(-c2oc(CNC(=O)c3ccc(Cl)cc3O)nc2-c2ccc(F)cc2)n1 [Example 195]	< 6.00
Cc1ccccc1CCC(=O)NCc1nc(-c2ccc(F)cc2)c(-c2nc(C(=O)NC(C)C)cs2)o1 [Example 172]	< 6.00

Answer with the recorded pIC50 of CC(C)NC(=O)c1csc(-c2oc(CNC(=O)c3cccc(F)c3F)nc2-c2ccc(F)cc2)n1 [Example 158] only. ≥ 6.00

Answer with the recorded pIC50 of COc1cccc(OC)c1C(=O)NCc1onc(-c2ccc(F)cc2)c1-c1nc(C(=O)NC(C)C)cs1 [Example 701] only. < 6.00

Answer with the recorded pIC50 of CC(C)NC(=O)c1csc(-c2oc(CNC(=O)c3cc(F)c(F)c(O)c3F)nc2-c2ccc(F)cc2)n1 [Example 254] only. < 6.00

Answer with the recorded pIC50 of CC(C)NC(=O)c1csc(-c2c(-c3ccc(F)cc3)noc2CNC(=O)c2cc(Cl)ccc2O)n1 [Example 671] only. < 6.00

Answer with the recorded pIC50 of CCOC(=O)CC(=O)N1CCN(Cc2nc(-c3ccc(F)cc3)c(-c3nc(C(=O)NC(C)C)cs3)o2)CC1 [Example 357] only. ≥ 6.00

Answer with the recorded pIC50 of Cc1ccc(O)c(C(=O)NCc2onc(-c3ccc(F)cc3)c2-c2nc(C(=O)NC(C)C)cs2)c1 [Example 620] only. < 6.00

---

target: active p38 alpha enzyme (Upstate Biotechnology) (Homo sapiens); construct: purchased Upstate Biotechnology; experiment: p38α biochemical assay (ATP turnover, luminescent detection, Cambrex PKlight); conditions: p38α kinase; Table 1 Biological Activity
pIC50: −log10 of the molar value.
Endpoint name: pIC50

Sample records with pIC50:
Compound	Assay system	Endpoint name	Result
Cc1nc(-c2ccc(F)cc2)c(-c2nc(C(=O)Nc3ccc4c(c3)CCC4)cs2)s1	active p38 alpha enzyme (Upstate Biotechnology) (Homo sapiens)	pIC50	< 6.00
Cc1cc(C)cc(NCc2nc(-c3ccc(F)cc3)c(-c3nc(C(=O)NC(C)C)cs3)o2)c1	active p38 alpha enzyme (Upstate Biotechnology) (Homo sapiens)	pIC50	< 6.00
Cc1ccc(CNCc2nc(-c3ccc(F)cc3)c(-c3nc(C(=O)NC(C)C)cs3)o2)cc1C	active p38 alpha enzyme (Upstate Biotechnology) (Homo sapiens)	pIC50	< 6.00
Cc1nc(-c2ccc(F)cc2)c(-c2nc(C(=O)N3CCN(c4cccc(C)c4C)CC3)cs2)s1	active p38 alpha enzyme (Upstate Biotechnology) (Homo sapiens)	pIC50	< 6.00

Provide measured pIC50 on active p38 alpha enzyme (Upstate Biotechnology) (Homo sapiens) for CC(=O)Nc1ccc(NCc2onc(-c3ccc(F)cc3)c2-c2nc(C(=O)NC(C)C)cs2)cc1 please. < 6.00

Provide measured pIC50 on active p38 alpha enzyme (Upstate Biotechnology) (Homo sapiens) for COc1cc(Cl)ccc1C(=O)N1CCC(c2[nH]nc(-c3ccc(F)cc3)c2-c2nc(C(=O)NC(C)C)cs2)CC1 please. < 6.00

Provide measured pIC50 on active p38 alpha enzyme (Upstate Biotechnology) (Homo sapiens) for CC(C)NC(=O)c1csc(-c2oc(CNc3ccc(N(C)C)cc3)nc2-c2ccc(F)cc2)n1 please. < 6.00

Provide measured pIC50 on active p38 alpha enzyme (Upstate Biotechnology) (Homo sapiens) for COc1ccccc1CNCc1nc(-c2ccc(F)cc2)c(-c2nc(C(=O)NC(C)C)cs2)o1 please. < 6.00

Provide measured pIC50 on active p38 alpha enzyme (Upstate Biotechnology) (Homo sapiens) for CC(C)NC(=O)c1csc(-c2oc(CNCc3cccc(C(F)(F)F)c3)nc2-c2ccc(F)cc2)n1 please. < 6.00

Provide measured pIC50 on active p38 alpha enzyme (Upstate Biotechnology) (Homo sapiens) for CC(C)NC(=O)c1csc(-c2c(-c3ccc(F)cc3)n[nH]c2C2CCN(C(=O)c3ccccc3)CC2)n1 [Example 825] please. ≥ 6.00

Provide measured pIC50 on active p38 alpha enzyme (Upstate Biotechnology) (Homo sapiens) for Cc1nc(-c2ccc(F)cc2)c(-c2nc(C(=O)NCc3ccccc3Cl)cs2)s1 please. ≥ 6.00

Provide measured pIC50 on active p38 alpha enzyme (Upstate Biotechnology) (Homo sapiens) for Cc1cccc(NCc2onc(-c3ccc(F)cc3)c2-c2nc(C(=O)NC(C)C)cs2)c1 please. < 6.00

Provide measured pIC50 on active p38 alpha enzyme (Upstate Biotechnology) (Homo sapiens) for CC(C)NC(=O)c1csc(-c2c(-c3ccc(F)cc3)noc2CN2CCC[C@@H]2CO)n1 please. < 6.00
